Assay: Tmax in C57/BL6 mouse heart at 30 mg/kg, po administered as single dose
Assay type: ADME, organism-based
test readout: Tmax (h)
I only need the number, in h, no unit after it.

The compound listed as `CC(C)Oc1ccccc1C(=O)Nc1ccccc1C(=O)Nc1cccc(S(=O)(=O)C(F)(F)F)c1` has a reported Tmax of 1.5

----------
Test system: HEK293
Test: Cytotoxic activity against HEK293 cells assessed as reduction in cell viability by measuring ATP level incubated for 72 hrs by ATP cytotoxicity assay
Assay type: cell-based, Homo sapiens
Details: Homo sapiens, HEK293, 72 h; read-out: EC50
test readout: EC50

The following compounds have reported results that may help.
>>> observed_result("O=C(Nc1cccc(C(F)(F)F)c1)c1ccccc1NC(=O)C1CCCCC1")
"59.3 µM"
>>> observed_result("O=C(Nc1ccccc1C(=O)Nc1cccc(C(F)(F)F)c1)c1ccncc1")
"9.4 µM"
>>> observed_result("O=C(Nc1ccccc1C(=O)Nc1cccc(C(F)(F)F)c1)c1cccnc1")
"9.4 µM"

# EC50 (compound: `O=C(Nc1ccccc1C(=O)Nc1cccc(C(F)(F)F)c1)c1ccc2c(c1)OCO2` ) is 3.74 µM

----------
Target: Relaxin receptor 1 (Homo sapiens, UniProt Q9HBX9)
Sequence (Q9HBX9 whole entry): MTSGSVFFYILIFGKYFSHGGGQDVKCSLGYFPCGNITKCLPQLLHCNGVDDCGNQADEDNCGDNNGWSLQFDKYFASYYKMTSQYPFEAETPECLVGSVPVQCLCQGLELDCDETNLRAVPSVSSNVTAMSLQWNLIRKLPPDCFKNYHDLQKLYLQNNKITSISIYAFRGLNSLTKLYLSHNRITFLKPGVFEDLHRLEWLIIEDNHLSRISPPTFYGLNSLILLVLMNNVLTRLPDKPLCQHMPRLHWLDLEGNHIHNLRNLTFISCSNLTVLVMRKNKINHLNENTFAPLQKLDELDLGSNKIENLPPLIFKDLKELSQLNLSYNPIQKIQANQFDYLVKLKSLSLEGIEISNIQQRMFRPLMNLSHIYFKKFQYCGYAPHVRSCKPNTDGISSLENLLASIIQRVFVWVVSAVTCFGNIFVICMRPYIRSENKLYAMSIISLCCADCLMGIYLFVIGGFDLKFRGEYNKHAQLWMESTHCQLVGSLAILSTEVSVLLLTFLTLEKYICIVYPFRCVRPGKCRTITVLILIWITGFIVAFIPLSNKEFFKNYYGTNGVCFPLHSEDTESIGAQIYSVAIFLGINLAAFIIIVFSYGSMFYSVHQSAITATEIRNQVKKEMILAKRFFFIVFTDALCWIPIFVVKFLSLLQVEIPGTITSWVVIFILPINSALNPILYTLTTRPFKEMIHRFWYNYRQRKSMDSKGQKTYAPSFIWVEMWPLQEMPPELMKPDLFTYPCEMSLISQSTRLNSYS
Test: Agonist activity at RXFP1 receptor (unknown origin) expressed in HEK293 cells assessed as stimulation of cAMP production incubated for 30 mins by TR-FRET based HTRF assay
Type: functional, cell-based
Conditions: read-out: AC50
Listed here: items and their measured log10 AC50.
// stored as log10 of AC50 expressed in µM

>>> observed_result("O=C(Nc1ccccc1C(=O)Nc1cccc(C(F)(F)F)c1)c1ccc([N+](=O)[O-])cc1")
0.17

# log10 AC50 of `O=C(Nc1cccc(C(F)(F)F)c1)c1ccccc1NC(=O)C1CCCCC1` = -1.33

Entry under test: `O=C(Nc1cccc(Cl)c1)c1ccccc1NC(=O)C1CCCCC1` . Its log10 AC50 was 0.52

Reported log10 AC50 of `Cc1ccc(NC(=O)c2ccccc2NC(=O)C2CCCCC2)cc1` : 2.27

log10 AC50 recorded for this molecule, `O=C(Nc1ccc([N+](=O)[O-])cc1)c1ccccc1NC(=O)C1CCCCC1` , is 1.87

The measured log10 AC50 associated with `CC(C)Oc1ccccc1C(=O)Nc1ccccc1C(=O)Nc1cccc(C(F)(F)F)c1` reads -0.33

----------
Test: Initial plasma concentration in C57/BL6 mouse plasma at 3 mg/kg, iv administered as single dose
Type: ADME, organism-based
test readout: C0 (ng/mL)
Quick note: give the figure in ng/mL, leave out the unit.

// `CC(C)Oc1ccccc1C(=O)Nc1ccccc1C(=O)Nc1cccc(S(=O)(=O)C(F)(F)F)c1` : C0 value = 499

----------
Listing: AC50 of selected molecules
Target: Relaxin receptor 1 (Homo sapiens, UniProt Q9HBX9)
Assay: Agonist activity at RXFP1 receptor (unknown origin) expressed in HEK293 cells assessed as stimulation of cAMP production incubated for 30 mins by TR-FRET based HTRF assay
Type: functional, cell-based
Conditions: read-out: AC50
Please make sure the unit comes right after the number.

Here's what some known entries look like.
>>> observed_result("O=CNc1ccccc1C(=O)Nc1cccc(C(F)(F)F)c1")
"47.1 µM"
>>> observed_result("O=C(Nc1cccc(C(F)(F)F)c1)c1ccccc1NC(=O)C1CCCC1")
"2.36 µM"
>>> observed_result("CCOc1ccccc1-c1nc2ccccc2c(=O)n1-c1cccc(-c2nnn[nH]2)c1")
"149 µM"

Measured AC50 of `COc1ccccc1C(=O)Nc1ccccc1C(=O)Nc1cccc(SC(F)(F)F)c1` : 0.297 µM

For this molecule ( `COc1ccccc1Nc1ccccc1C(=O)Nc1cccc(C(F)(F)F)c1` ), measured AC50 is 4.71 µM

# molecule `CNCCOc1ccccc1C(=O)Nc1ccccc1C(=O)Nc1cccc(C(F)(F)F)c1` ; its AC50 = 3.74 µM

Looking up `O=C(Nc1ccccc1C(=O)Nc1cccc(C(F)(F)F)c1)c1cccc(C(F)(F)F)c1` , I found its AC50 recorded as 2.97 µM

Value of measured AC50 for the entry `O=C(Nc1ccccc1C(=O)Nc1cccc(C(F)(F)F)c1)c1ccno1` : 14.9 µM

// AC50 lookup, molecule = `O=C(Nc1cccc(SC(F)(F)F)c1)c1ccccc1NC(=O)C1CCCCC1` , result: 1.88 µM

----------
Target: Relaxin receptor 1 (Homo sapiens)
Experiment: Agonist activity at RXFP1 receptor (unknown origin) expressed in HEK293 cells assessed as stimulation of cAMP production incubated for 30 mins by TR-FRET based HTRF assay relative to forskolin
Type: functional, cell-based
Activity calls are given as the source filed them. No cut-off for these calls is given here.
test readout: %max

In the examples that follow, each entry is paired with its recorded %max.
>>> observed_result("O=C(Nc1cccc(-c2ccccc2)c1)c1ccccc1NC(=O)C1CCCCC1")
"inactive"
>>> observed_result("C/C=C/c1cccc(NC(=O)c2ccccc2NC(=O)c2ccccc2OCC)c1")
"84%"
>>> observed_result("COc1cccc(C(=O)Nc2ccccc2C(=O)Nc2cccc(C(F)(F)F)c2)c1")
"94%"
>>> observed_result("O=C(Nc1ccc2cc[nH]c2c1)c1ccccc1NC(=O)C1CCCCC1")
"inactive"
>>> observed_result("CCOc1ccccc1C(=O)Nc1ccccc1CNc1cccc(S(=O)(=O)C(F)(F)F)c1")
"77%"
>>> observed_result("O=C(Nc1cccc(C(F)(F)F)c1)c1ccccc1NC(=O)C1CC1")
"79%"
>>> observed_result("O=C(Nc1ccc(Br)cc1)c1ccccc1NC(=O)C1CCCCC1")
"50%"
>>> observed_result("CCOc1ccccc1S(=O)(=O)Nc1ccccc1C(=O)Nc1cccc(S(=O)(=O)C(F)(F)F)c1")
"inactive"
>>> observed_result("O=C(Nc1cccc(C(F)(F)F)c1)c1ccccc1NCC1CCCCC1")
"77%"
>>> observed_result("O=C(Nc1ccccc1C(=O)Nc1cccc(C(F)(F)F)c1)c1ccccc1Cl")
"92%"

Item: `O=C(Nc1cccc(C(F)(F)F)c1)c1ccccc1NCc1ccccc1` | %max: 69%

Kindly note the recorded %max for `O=C(Nc1ccccc1C(=O)Nc1cccc(C(F)(F)F)c1)c1ccno1` , which is 93%

So for `O=C(Nc1cccc(Cl)c1)c1ccccc1NC(=O)C1CCCCC1` , the logged %max turned out to be 89%

The measured %max associated with `COCCOc1ccccc1C(=O)Nc1cccc(C(F)(F)F)c1` reads inactive

// %max lookup, molecule = `N#Cc1cccc(C(=O)Nc2ccccc2C(=O)Nc2cccc(C(F)(F)F)c2)c1` , result: 96%

# molecule `O=C(NCc1ccco1)c1ccccc1NC(=O)C1CCCCC1` ; its %max = inactive

According to the records, this molecule `CC(C)(C)c1ccc(NC(=O)c2ccccc2NC(=O)C2CCCCC2)cc1` displays %max of inactive

// recorded %max for `COc1ccccc1C(=O)Nc1ccccc1C(=O)N(C)c1cccc(C(F)(F)F)c1` : 77%

Consider `O=C(Nc1ccccc1C(=O)Nc1cccc(C(F)(F)F)c1)c1ccc([N+](=O)[O-])cc1` . Its measured %max is 96%

The reported value for `O=C(Nc1ccccc1C(=O)Nc1cccc(C(F)(F)F)c1)c1ccc2c(c1)OCO2` in terms of %max is 81%

Data point: `O=C(Nc1cc(C(F)(F)F)ccc1F)c1ccccc1NC(=O)C1CCCCC1` ; %max = inactive
